- studyTarget: P450 BM3 (CYP102A1) (Priestia megaterium, UniProt P14779, N320L/T412V/T437A)
- Sequence (P14779 whole entry N320L/T412V/T437A): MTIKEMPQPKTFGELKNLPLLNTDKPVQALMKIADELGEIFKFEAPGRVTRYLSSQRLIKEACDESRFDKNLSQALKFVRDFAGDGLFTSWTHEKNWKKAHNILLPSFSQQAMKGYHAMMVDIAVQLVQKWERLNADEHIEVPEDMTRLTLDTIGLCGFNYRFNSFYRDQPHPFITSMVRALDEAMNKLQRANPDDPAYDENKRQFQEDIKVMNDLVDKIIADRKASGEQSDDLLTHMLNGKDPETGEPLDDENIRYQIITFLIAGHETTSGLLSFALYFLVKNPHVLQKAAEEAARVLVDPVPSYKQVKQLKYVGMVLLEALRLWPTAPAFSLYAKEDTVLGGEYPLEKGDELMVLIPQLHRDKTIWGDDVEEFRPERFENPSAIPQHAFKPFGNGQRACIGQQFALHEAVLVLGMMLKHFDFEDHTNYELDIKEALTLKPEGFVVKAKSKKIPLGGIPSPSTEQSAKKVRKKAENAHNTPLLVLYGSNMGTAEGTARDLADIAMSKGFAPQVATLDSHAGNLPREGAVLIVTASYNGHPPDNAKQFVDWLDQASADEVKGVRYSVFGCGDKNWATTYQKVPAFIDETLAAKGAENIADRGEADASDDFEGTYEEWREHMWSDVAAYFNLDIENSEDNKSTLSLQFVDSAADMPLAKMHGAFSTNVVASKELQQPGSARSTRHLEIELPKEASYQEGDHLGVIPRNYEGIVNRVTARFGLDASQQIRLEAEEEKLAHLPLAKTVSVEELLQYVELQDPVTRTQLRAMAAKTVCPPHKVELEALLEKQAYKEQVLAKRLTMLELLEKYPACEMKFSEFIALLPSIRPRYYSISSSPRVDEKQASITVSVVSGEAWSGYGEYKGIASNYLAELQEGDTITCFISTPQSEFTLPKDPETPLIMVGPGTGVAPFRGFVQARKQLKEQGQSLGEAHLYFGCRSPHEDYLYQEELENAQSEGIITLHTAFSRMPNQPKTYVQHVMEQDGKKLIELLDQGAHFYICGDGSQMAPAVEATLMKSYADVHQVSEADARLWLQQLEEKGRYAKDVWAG
- experimentSummary: biochemical
measure: Kd
Show the value, then the unit it is measured in.

Task: Param readout= Kd; system= P450 BM3 (CYP102A1) (Priestia megaterium, UniProt P14779, N320L/T412V/T437A); entry= "CC1=CC(=O)CC(C)(C)C1" ; returns value.
Result: 6.26 mM
